- experimental.details: Single daily dose PK in human subjects (summary statements)
- Assay type: in vivo
- assay.context: plasma, oral, single 2.5 mg daily dose, read-out: mean time to maximum plasma concentration (tmax)
recorded.endpoint: Tmax

Query block: Supply reported Tmax belonging to this molecule: `Cc1ncc(OC[C@@]2(c3cccc(F)c3)C[C@H]2C(=O)Nc2ccc(F)cn2)c(C)n1`
Result block: 1 to 2 h

====

- experimental.details: Crossover study of relative bioavailability of tablet versus capsule (005 Study): plasma PK
- Type: in vivo, human
- assay.context: human, plasma, po, 10 mg, single oral 10 mg Capsule, healthy adults; read-out: AUC(0-8) Mean(SD)
recorded.endpoint: AUC(0-t) (ng·h/mL)
Use ng·h/mL as the unit, but write only the number.

Query block: Supply reported AUC(0-t) belonging to this compound: `Cc1ncc(OC[C@@]2(c3cccc(F)c3)C[C@H]2C(=O)Nc2ccc(F)cn2)c(C)n1`
Result block: 164

====

- experimental.details: Multiple ascending dose study (002 Study): plasma PK
- Format: in vivo, human
- assay.context: human, oral; plasma at 10 h, Day 1, 25 mg; read-out: C10 Mean(SD)
- Method: A total of 48 healthy adult subjects (18 to 55 years) were to be enrolled into 1 of 6 cohorts sequentially in a gradual dose escalation manner, and randomized to receive either compound A or compound A-matched placebo in the evening 30 minutes before habitual bedtime, and after 3 hours fasting, for 14 days. Each cohort was to comprise 6 compound A-treated subjects and 2 placebo-treated subjects. […]
recorded.endpoint: concentration at 10 h (ng/mL)
Use ng/mL as the unit, but write only the number.

Query block: Supply reported concentration at 10 h belonging to this molecule: `Cc1ncc(OC[C@@]2(c3cccc(F)c3)C[C@H]2C(=O)Nc2ccc(F)cn2)c(C)n1`
Result block: 19.8

====

- experimental.details: Crossover study of relative bioavailability of tablet versus capsule (005 Study): plasma PK
- Type: in vivo, human
- assay.context: human, plasma, po, 2.5 mg, single oral 2.5 mg Capsule, healthy adults; read-out: AUC(0-t) Mean(SD)
recorded.endpoint: AUC(0-t) (ng·h/mL)
Use ng·h/mL as the unit, but write only the number.

Query block: Supply reported AUC(0-t) belonging to this compound: Cc1ncc(OC[C@@]2(c3cccc(F)c3)C[C@H]2C(=O)Nc2ccc(F)cn2)c(C)n1 [Compound A]
Result block: 94.9

====

- experimental.details: Single dose study (001 Study) Part A: plasma PK of compound A
- Assay type: in vivo
- assay.context: human, plasma, po, 1 mg, single oral 1 mg, healthy subjects (Part A); read-out: AUC(0-t) Mean(SD)
recorded.endpoint: AUC(0-t)

Query block: Supply reported AUC(0-t) belonging to this compound: `Cc1ncc(OC[C@@]2(c3cccc(F)c3)C[C@H]2C(=O)Nc2ccc(F)cn2)c(C)n1`
Result block: ~19.1 ng·h/mL

====

- experimental.details: Single dose study (001 Study) Part A: plasma PK of compound A
- Format: in vivo
- assay.context: human, plasma, po, 10 mg, single oral 10 mg, healthy subjects (Part A); read-out: tmax Median
recorded.endpoint: Tmax (h)
Use h as the unit, but write only the number.

Query block: Supply reported Tmax belonging to this compound: Cc1ncc(OC[C@@]2(c3cccc(F)c3)C[C@H]2C(=O)Nc2ccc(F)cn2)c(C)n1 [Compound A]
Result block: 1

====

- experimental.details: Multiple ascending dose study (002 Study): plasma PK
- Format: in vivo, human
- assay.context: human, plasma, oral, 75 mg, Day 14, 75 mg once daily for 14 days; read-out: AUC(0-24) Mean(SD)
recorded.endpoint: AUC(0-t)
Respond with a number, then the unit of measure.

Query block: Supply reported AUC(0-t) belonging to this compound: Cc1ncc(OC[C@@]2(c3cccc(F)c3)C[C@H]2C(=O)Nc2ccc(F)cn2)c(C)n1 [Compound A]
Result block: 3790 ng·h/mL
